Hey, just so you know, these numbers are from PubChem BioAssay (EPA / NIEHS).

- Read-out: Interferon-gamma inducible Protein 10 (IP10), CXCL10 (gene 3627)
- protocol-summary: BSK_KF3CT_IP10: BioMAP Diversity Plus: KF3CT Assay for Interferon-gamma inducible Protein 10 (IP10) Biomarker Activity (AID 2283068)
- applied-conditions: primary human keratinocytes with fibroblasts; actives raise or lower the signal
Calls of active or inactive are those of the source. The calls were made as follows: active = hit-call score of the fitted dose curve at least 0.9, where 1 is the maximum; inactive = score below 0.9.
recorded-endpoint: AC50

| molecule | measured |
| --- | --- |
| C[C@H]1C[C@@H]2[C@H]([C@@H](O)C[C@@]3(C)[C@H]2CC[C@]3(O)C(=O)CO)[C@@]2(C)C=CC(=O)C=C12 | inactive |
| COc1cc(C=O)ccc1OC(=O)C(C)C | inactive |
| CCCCCCCCCC=O | 11.9 µM (active) |
| O=C(O)c1cn(-c2ccc(F)cc2)c2cc(N3CCNCC3)c(F)cc2c1=O | inactive |
| Nc1cc([N+](=O)[O-])ccc1Cl | inactive |
| Cc1ccc(Nc2ccc(O)c3c2C(=O)c2ccccc2C3=O)cc1 | inactive |
| CC(=O)/C=C/C1=C(C)CCCC1(C)C | inactive |
| CC(C)Oc1ccccc1O | inactive |
| C=C(C)C(=O)O[C@H]1C[C@@H]2CC[C@@]1(C)C2(C)C | 16.9 µM (active) |
| N#Cc1ccc(CC(=NNC(=O)Nc2ccc(OC(F)(F)F)cc2)c2cccc(C(F)(F)F)c2)cc1 | inactive |

Looking up CCCCCCCCC=O , I found its AC50 recorded as inactive

Looking up O=C(O)C[C@H](O)C[C@H](O)/C=C/c1c(C2CC2)nc2ccccc2c1-c1ccc(F)cc1 , I found its AC50 recorded as inactive

Looking up CCc1c(C)cc(N)c(CC)c1N , I found its AC50 recorded as inactive

Looking up CC1CCC(C(C)CS)CC1S (stereo not drawn) , I found its AC50 recorded as 20 µM (active)

Looking up OC[C@H]1O[C@H](O[C@]2(CCl)O[C@H](CCl)[C@@H](O)[C@@H]2O)[C@H](O)[C@@H](O)[C@H]1Cl , I found its AC50 recorded as inactive

----------
- protocol-summary: ATG_Sox_CIS: Attagene CIS-FACTORIAL HepG2 Assay for human SRY-box transcription factor (SOX) (AID 2282960)
- applied-conditions: HepG2 Attagene cis-factorial SOX reporter, mRNA; actives raise or lower the signal
Calls of active or inactive are those of the source. The calls were made as follows: active = hit-call score of the fitted dose curve at least 0.9, where 1 is the maximum; inactive = score below 0.9.
Outcome field: choose from true (1) for active, false (0) for inactive

Solved entries:
| molecule | category |
| --- | --- |
| CCCCC(CC)COCCC#N (stereo not given) | false (0) |
| O=C1CCCCCCCCCCOCCCCO1 | false (0) |

I'd appreciate the recorded outcome for CC1CCC(C(C)CS)CC1S (stereo not given) from this test.
true (1)

I'd appreciate the recorded outcome for CC(C)(C)c1n[nH]c(=S)n(N)c1=O from this test.
false (0)

I'd appreciate the recorded outcome for c1ccc(CCCc2ccccn2)cc1 from this test.
false (0)

I'd appreciate the recorded outcome for O=S(=O)(O)c1cccc2c(S(=O)(=O)O)cccc12 from this test.
false (0)

I'd appreciate the recorded outcome for C=C(C)C(=O)Nc1ccc(Cl)c(Cl)c1 from this test.
false (0)

I'd appreciate the recorded outcome for C=CC(=O)OCC(O)COc1ccccc1 (stereo not given) from this test.
true (1)

I'd appreciate the recorded outcome for CC(C)Oc1ccccc1O from this test.
false (0)

I'd appreciate the recorded outcome for CCCCNC(=O)NS(=O)(=O)c1ccc(N)cc1 from this test.
false (0)
